// data source = patent US8871756B2

- System: RSV Long strain
- protocol summary: Viral cytopathic effect (CPE) assay, anti-RSV activity
- Format: cell-based, Respiratory Syncytial Virus
- condition details: human respiratory syncytial virus, 144 h, RSV Long strain (ATCC); cell viability after 6 days, Cell Counting kit-8
experimental endpoint: EC50 (µM)

molecule | experimental endpoint | experimental result
Cc1ccc2nc(N3CCS(=O)(=O)c4ccccc4C3)cc(N[C@@H](C)C(=O)O)c2c1 [Example 14-1] | EC50 | 2.19
Cc1ccc2nc(N3CCS(=O)(=O)c4ccccc4C3)cc(Nc3cc[nH]n3)c2c1 [Example 47-3] | EC50 | 5.69
NCCNc1cc(N2CCCc3ccccc3C2)nc2ccc(OC(F)(F)F)cc12 [Example 118-23] | EC50 | 2.64
CN(C)CCNc1cc(N2CCCc3ccccc3C2)nc2ccccc12 [Example 118-22] | EC50 | 2.23
COc1ccc2c(c1)CN(c1cc(NCC3(N)COC3)c3ccccc3n1)CCS2(=O)=O [Example 1-7] | EC50 | 0.022

a = NCC1(CNc2nc(N3CC[S+]([O-])c4ccccc4C3)nc3ccc(C(=O)O)cc23)COC1 (stereo not drawn) [Example 108-1]
b = Cc1ccc2nc(N3CCS(=O)(=O)c4ccccc4C3)cc(NC[C@H](N)CO)c2c1 [Example 37-1]
c = CCN(CCNc1cc(N2CCS(=O)(=O)c3ccccc3C2)nc2ccc(C)cc12)C1COC1 [Example 44-2]
d = Cc1ccc2nc(N3CC[S+]([O-])c4ccccc4C3)cc(N3CCC(N)C3)c2c1 (stereo not drawn) [Example 19-4]
Thanks in advance: please rank these 4 entries by EC50, highest to lowest. Write the labels in rank order as requested. c, a, d, b
(c: 1.55 µM, a: 0.488 µM, d: 0.02 µM, b: 0.005 µM)

A = Cc1ccc2nc(N3CCS(=O)(=O)c4ccccc4C3)nc(NCC3(N)COC3)c2c1 [Example 61-1]
B = CCNC(=O)Nc1cc(N2CCS(=O)(=O)c3ccccc3C2)nc2ccc(C)cc12 [Example 50-2]
Could you tell me which of A and B has the lower EC50 reading? // caller expects the label of the chosen entry A
(A: 0.005 µM, B: 2.42 µM)
